- TARGET OR SYSTEM: Calmodulin-sensitive adenylate cyclase (Bacillus anthracis)
- Sequence (P40136 whole entry): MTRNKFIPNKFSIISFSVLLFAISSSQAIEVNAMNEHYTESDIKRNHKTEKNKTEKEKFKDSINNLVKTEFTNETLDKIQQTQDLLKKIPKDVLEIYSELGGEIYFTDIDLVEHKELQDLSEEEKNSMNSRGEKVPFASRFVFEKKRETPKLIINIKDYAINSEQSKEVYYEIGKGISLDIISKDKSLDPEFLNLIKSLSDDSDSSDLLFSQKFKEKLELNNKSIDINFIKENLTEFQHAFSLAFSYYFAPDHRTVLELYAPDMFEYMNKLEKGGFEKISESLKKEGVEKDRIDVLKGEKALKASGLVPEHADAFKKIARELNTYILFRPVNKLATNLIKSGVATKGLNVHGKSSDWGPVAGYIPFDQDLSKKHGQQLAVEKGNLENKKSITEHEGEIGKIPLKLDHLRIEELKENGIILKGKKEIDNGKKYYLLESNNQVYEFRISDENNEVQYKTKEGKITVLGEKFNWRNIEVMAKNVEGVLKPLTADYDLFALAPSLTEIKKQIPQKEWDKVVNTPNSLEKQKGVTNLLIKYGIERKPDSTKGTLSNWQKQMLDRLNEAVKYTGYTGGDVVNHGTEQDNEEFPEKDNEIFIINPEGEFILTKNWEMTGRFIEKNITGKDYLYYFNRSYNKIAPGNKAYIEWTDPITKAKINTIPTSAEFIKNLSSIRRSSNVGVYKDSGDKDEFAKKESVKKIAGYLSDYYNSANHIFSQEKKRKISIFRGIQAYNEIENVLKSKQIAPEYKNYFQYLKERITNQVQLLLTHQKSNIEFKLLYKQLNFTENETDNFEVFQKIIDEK
- EXPERIMENT SUMMARY: Inactivation of Bacillus anthracis edema factor in presence of CaM incubated for 10 to 240 mins by EnzChek pyrophosphate assay
pKi: −log10 of the molar value.

[
  {
    "STRUCTURE SMILES": "Nc1cc(OC2CCN(C(=O)c3ccc(S(=O)(=O)F)cc3)CC2)ccn1",
    "pKi": 4.23
  }
]

Origin of values: BindingDB's records for doi:10.1016/j.bmcl.2017.11.040
